biological target: T1, epidermal growth factor receptor (EGFR) (human, UniProt P00533 25-1210); experiment: table column 'Binding antigen'; no assay given
T1 construct: whole, on cells; The cell assays use human tumour lines; also called hEGFR
Outcome Measure: binding result

EEB11 PEG4-MMAF conjugate (designed binder, Iodoacetyl-PEG4-MMAF on cysteines; 3 MMAF after conjugation, Bivalent P155R8-G3 with ABDcon12) MLPAPKNLVVSRVTEDSARLSWTAPDAAFDSFQIYYSELLSYGEAIVLTVPGSERSYDLTGLCPGTEYTVSINGVKGGTRSWSLSAIFTTAPCPAPAPAPLPAPKNLVVSRVTEDSARLSWTAPDAAFDSFQIYYSELLSYGEAIVLTVPGSERSYDLTGLCPGTEYTVSINGVKGGTRSWSLSAIFTTAPAPAPAPAPTIDEWLLKEAKEKAIEELKKAGITSDYYFDLINKAKTVEGVNALKDEILKA | binds
